Every entry's value here was drawn from paper PMC5540273.

Overview of recorded %Inh for various compounds
System: ERK5;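 note: KINOMEscan kinase panel screen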
Construct: gene MAPK7
assaySetup: concentration: 1 μM, replicates: in singlicate; n = 1

compound: COc1cc(Nc2nccc(N3CCC(NC(=O)Nc4cc(C)ccc4C)C3)n2)cc(OC)c1OC (stereo not shown) [GSK1379762]
testedOn: ERK5
measureUnit: %
%Inh: 0
//
compound: Clc1cc(Cl)cc(Nc2ccnc(Nc3cc(Cl)cc(Cl)c3)n2)c1 [GSK175726]
testedOn: ERK5
measureUnit: %
%Inh: 0
//
compound: Cn1ccc2ncnc(Oc3cccc(C(=O)Nc4ccccc4)c3)c21
testedOn: ERK5
measureUnit: %
%Inh: 5
//
compound: O=C(Nc1n[nH]c2nc(-c3nccs3)c(Br)cc12)C1CC1 [SB-742251]
testedOn: ERK5
measureUnit: %
%Inh: 0
//
compound: Cc1cccc(-c2nc(-c3ccc(S(C)(=O)=O)cc3)sc2-c2ccnc(NCCc3ccccc3)c2)c1
testedOn: ERK5
measureUnit: %
%Inh: 5
//
compound: Cc1ccc(NC(=O)Nc2cccc(Cl)c2)cc1-c1ccc(C(=O)Nc2ccncc2)cc1 [GSK1398468]
testedOn: ERK5
measureUnit: %
%Inh: 0
//
compound: COc1ccc(C2=C(Nc3cccc(C(=O)O)c3)C(=O)NC2=O)cc1 [SB-390765]
testedOn: ERK5
measureUnit: %
%Inh: 10
//
compound: Fc1cc(Cl)ccc1Nc1ccnc2cc(-c3ccc(CN4CCCCC4)o3)ccc12 [GW560116]
testedOn: ERK5
measureUnit: %
%Inh: 0
//
compound: Nc1nc(-c2nccs2)c(-c2ccnc3ccccc23)s1 [GW693542]
testedOn: ERK5
measureUnit: %
%Inh: 0
//
compound: Cc1cccc(-c2nc(Nc3cccc(C(N)=O)c3)c3ccccc3n2)n1 [GW876019]
testedOn: ERK5
measureUnit: %
%Inh: 0
//
compound: O=C(O)COc1ncnc2cc(-c3ccc4[nH]ncc4c3)sc12
testedOn: ERK5
measureUnit: %
%Inh: 1
//
compound: Cc1cccc(-c2cc(Nc3ccncc3)c3ccccc3n2)n1 [GSK223675]
testedOn: ERK5
measureUnit: %
%Inh: 0
//
compound: Fc1cccc(COc2nnc(-c3ccc4c(c3)CCO4)o2)c1
testedOn: ERK5
measureUnit: %
%Inh: 8
//
compound: CSc1nn2c(=O)cc(N3CCOCC3)nc2n1Cc1cccc(C(F)(F)F)c1C [GSK2363608]
testedOn: ERK5
measureUnit: %
%Inh: 0
//
compound: Nc1ncnc2[nH]c(-c3ccccc3)nc12 [AH5015]
testedOn: ERK5
measureUnit: %
%Inh: 0
//
compound: Fc1cc(Cl)ccc1Nc1ccnc2cc(I)ccc12 [GW551191]
testedOn: ERK5
measureUnit: %
%Inh: 0
//
compound: Cc1ccc(NC(=O)Nc2cc(C(C)(C)C)nn2-c2ccccc2)cc1 [GSK1014915]
testedOn: ERK5
measureUnit: %
%Inh: 0
//
compound: CC(C)(C)c1ccc(C(=O)Nc2cn3cc(Cl)ccc3n2)cc1
testedOn: ERK5
measureUnit: %
%Inh: 0
//
compound: NC(=O)c1nnc2ccccc2c1N
testedOn: ERK5
measureUnit: %
%Inh: 5
//
compound: COc1cc2ncn(-c3cc(OCC4CCCO4)c(C(N)=O)s3)c2cc1OC (stereo not shown) [GSK204607]
testedOn: ERK5
measureUnit: %
%Inh: 0
//
compound: Cc1ccccc1-n1cnc2c(N)ncnc21 [SKF-97510]
testedOn: ERK5
measureUnit: %
%Inh: 0
//
compound: Cc1csc(-c2nc(Nc3ccncc3)c3ccccc3n2)n1 [GW869640]
testedOn: ERK5
measureUnit: %
%Inh: 0
//
compound: COc1cc2nccc(Nc3ccc(NC(=O)c4ccc(C)cc4)c(O)c3)c2cc1OC.Cl [GW440132]
testedOn: ERK5
measureUnit: %
%Inh: 0
//
compound: CC(C)(C)c1ccc(C(=O)Nc2cn3cc(-c4cccnc4)ccc3n2)cc1
testedOn: ERK5
measureUnit: %
%Inh: 20
//
compound: Cl.c1ccc(-c2n[nH]cc2-c2ccnc(-c3ccc(CN4CCOCC4)cc3)c2)nc1 [GW776245]
testedOn: ERK5
measureUnit: %
%Inh: 9
//
compound: Cc1cccc(-c2nc(Nc3ccc4[nH]ncc4c3)c3ccccc3n2)n1 [GW857175]
testedOn: ERK5
measureUnit: %
%Inh: 3
//
compound: Cc1c(O)cccc1Nc1ccnc2ccc(C(F)(F)F)cc12.Cl [GW466413]
testedOn: ERK5
measureUnit: %
%Inh: 0
//
compound: Cn1ccc2ncnc(Oc3ccc(NC(=O)Nc4ccccc4)cc3)c21
testedOn: ERK5
measureUnit: %
%Inh: 9
//
compound: Cl.O=C(Nc1cccc(-c2nn3ncccc3c2-c2ccnc(Nc3cccnc3)n2)c1)c1c(F)cccc1F [GSK312879]
testedOn: ERK5
measureUnit: %
%Inh: 0
//
compound: Cc1c(Cn2ccn3c(=O)cc(N4CCOCC4)nc23)cccc1C(F)(F)F [GSK2289044]
testedOn: ERK5
measureUnit: %
%Inh: 0
//
compound: O=C1NC(=O)C(N2CCc3ccccc32)=C1c1ccccc1Cl [SB-373598]
testedOn: ERK5
measureUnit: %
%Inh: 0
//
compound: Cc1cccc(-c2nc(Nc3ccncc3)c3ccccc3n2)n1 [GW855857]
testedOn: ERK5
measureUnit: %
%Inh: 30
//
compound: Cc1ccc(C(=O)Nc2ccc(Nc3ccnc4cc(-c5ccccn5)ccc34)cc2O)cc1.Cl [GW440146]
testedOn: ERK5
measureUnit: %
%Inh: 0
//
compound: Cn1cncc1-c1ccc2ncnc(Nc3ccc(OCc4ccccc4)cc3)c2c1 [GW320571]
testedOn: ERK5
measureUnit: %
%Inh: 0
